- protocol: Cytotoxicity in uninfected HEp-2 cells (MTT), same assay
- Format: cell-based
- run.conditions: human, hep-2 cells, solvent DMSO, 5 day assay, drug added on day 1
readout.kind: CC50 at 120 h (µM)
Hi! Could you send only the number? It should be in µM, unit omitted.

# input Reported CC50 at 120 h, compound `CCCCN1C[C@H](O)[C@@H](O)[C@H](O)[C@H]1CO` : ____
# output 100

----------
- Tested on: HEp-2 cells
- protocol: Cytotoxicity in uninfected HEp-2 cells (MTT), same assay
- Format: cell-based
- run.conditions: solvent DMSO, 5 day assay, drug added on day 1, 7200 min
readout.kind: CC50 (µM)
Hi! Could you send only the number? It should be in µM, unit omitted.

# input Lab note: need CC50 with HEp-2 cells for entry `CCCCN1C[C@H](O)[C@@H](O)[C@H](O)[C@H]1CO` , please look it up.
# output 156
